The reported numbers originate from patent US20240050432A1.

# test.protocol: Eganelisib exposures (Cmax, AUC0-24 hrs) with combination therapies, 3 clinical studies
# Assay type: in vivo, human
# experimental.conditions: human, in vivo, 40 mg, 40 mg QD, C1D1, model-predicted; read-out: AUC0-24 hrs, Mean
measurement.label: AUC(0-t) (ng·h/mL)
API: value field is a number in ng·h/mL; no unit string.

Prompt: Suppose we examine the compound C[C@H](NC(=O)c1c(N)nn2cccnc12)c1cc2cccc(C#Cc3cnn(C)c3)c2c(=O)n1-c1ccccc1 [Compound 1, eganelisib] ; what AUC(0-t) value has been reported?
Completion: 28400

###

# test.protocol: Eganelisib exposures (Cmax, AUC0-24 hrs) with combination therapies, 3 clinical studies
# Type: in vivo, human
# experimental.conditions: human, in vivo, 30 mg QD, C2D1, model-predicted; read-out: AUC0-24 hrs, GeoMean
measurement.label: AUC(0-t) (ng·h/mL)
API: value field is a number in ng·h/mL; no unit string.

Prompt: Suppose we examine the compound C[C@H](NC(=O)c1c(N)nn2cccnc12)c1cc2cccc(C#Cc3cnn(C)c3)c2c(=O)n1-c1ccccc1 ; what AUC(0-t) value has been reported?
Completion: 29200

###

# test.protocol: Eganelisib exposures (Cmax, AUC0-24 hrs) with combination therapies, 3 clinical studies
# Type: in vivo, human
# experimental.conditions: human, in vivo, 40 mg, 40 mg QD, C2D1, model-predicted; read-out: Cmax, Mean
measurement.label: Cmax (ng/mL)
API: value field is a number in ng/mL; no unit string.

Prompt: Suppose we examine the compound C[C@H](NC(=O)c1c(N)nn2cccnc12)c1cc2cccc(C#Cc3cnn(C)c3)c2c(=O)n1-c1ccccc1 ; what Cmax value has been reported?
Completion: 2770

###

# test.protocol: Eganelisib exposures (Cmax, AUC0-24 hrs) with combination therapies, 3 clinical studies
# Format: in vivo, human
# experimental.conditions: human, in vivo, 30 mg QD, C1D1, model-predicted; read-out: Cmax, Mean
measurement.label: Cmax (ng/mL)
API: value field is a number in ng/mL; no unit string.

Prompt: Suppose we examine the molecule C[C@H](NC(=O)c1c(N)nn2cccnc12)c1cc2cccc(C#Cc3cnn(C)c3)c2c(=O)n1-c1ccccc1 [Compound 1, eganelisib] ; what Cmax value has been reported?
Completion: 1020

###

# test.protocol: Eganelisib exposures (Cmax, AUC0-24 hrs) with combination therapies, 3 clinical studies
# Type: in vivo, human
# experimental.conditions: human, in vivo, 30 mg QD, C2D1, model-predicted; read-out: AUC0-24 hrs, Median
measurement.label: AUC(0-t) (ng·h/mL)
API: value field is a number in ng·h/mL; no unit string.

Prompt: Suppose we examine the compound C[C@H](NC(=O)c1c(N)nn2cccnc12)c1cc2cccc(C#Cc3cnn(C)c3)c2c(=O)n1-c1ccccc1 ; what AUC(0-t) value has been reported?
Completion: 25800

###

# test.protocol: Eganelisib exposures (Cmax, AUC0-24 hrs) with combination therapies, 3 clinical studies
# Type: in vivo, human
# experimental.conditions: human, in vivo, 30 mg QD, C2D1, model-predicted; read-out: Cmax, GeoMean
measurement.label: Cmax
I'd appreciate it if you included the unit after the number.

Prompt: Suppose we examine the molecule C[C@H](NC(=O)c1c(N)nn2cccnc12)c1cc2cccc(C#Cc3cnn(C)c3)c2c(=O)n1-c1ccccc1 ; what Cmax value has been reported?
Completion: 1680 ng/mL

###

# test.protocol: Eganelisib exposures (Cmax, AUC0-24 hrs) with combination therapies, 3 clinical studies
# Type: in vivo, human
# experimental.conditions: human, in vivo, 40 mg, 40 mg QD, C1D1, model-predicted; read-out: AUC0-24 hrs, GeoMean
measurement.label: AUC(0-t) (ng·h/mL)
API: value field is a number in ng·h/mL; no unit string.

Prompt: Suppose we examine the compound C[C@H](NC(=O)c1c(N)nn2cccnc12)c1cc2cccc(C#Cc3cnn(C)c3)c2c(=O)n1-c1ccccc1 [Compound 1, eganelisib] ; what AUC(0-t) value has been reported?
Completion: 26200

###

# test.protocol: Eganelisib exposures (Cmax, AUC0-24 hrs) with combination therapies, 3 clinical studies
# Type: in vivo, human
# experimental.conditions: human, in vivo, oral, 30 mg QD, C1D1, model-predicted; read-out: AUC0-24 hrs, Mean
measurement.label: AUC(0-t) (ng·h/mL)
API: value field is a number in ng·h/mL; no unit string.

Prompt: Suppose we examine the compound C[C@H](NC(=O)c1c(N)nn2cccnc12)c1cc2cccc(C#Cc3cnn(C)c3)c2c(=O)n1-c1ccccc1 [Compound 1, eganelisib] ; what AUC(0-t) value has been reported?
Completion: 16700

###

# test.protocol: Eganelisib exposures (Cmax, AUC0-24 hrs) with combination therapies, 3 clinical studies
# Format: in vivo, human
# experimental.conditions: human, in vivo, 30 mg QD, C2D1, model-predicted; read-out: AUC0-24 hrs, Mean
measurement.label: AUC(0-t) (ng·h/mL)
API: value field is a number in ng·h/mL; no unit string.

Prompt: Suppose we examine the compound C[C@H](NC(=O)c1c(N)nn2cccnc12)c1cc2cccc(C#Cc3cnn(C)c3)c2c(=O)n1-c1ccccc1 ; what AUC(0-t) value has been reported?
Completion: 33600

###

# test.protocol: Eganelisib exposures (Cmax, AUC0-24 hrs) with combination therapies, 3 clinical studies
# Type: in vivo, human
# experimental.conditions: human, in vivo, 40 mg, 40 mg QD, C2D1, model-predicted; read-out: AUC0-24 hrs, Mean
measurement.label: AUC(0-t)

Prompt: Suppose we examine the compound C[C@H](NC(=O)c1c(N)nn2cccnc12)c1cc2cccc(C#Cc3cnn(C)c3)c2c(=O)n1-c1ccccc1 ; what AUC(0-t) value has been reported?
Completion: 49600 ng·h/mL
